System name: Protein mono-ADP-ribosyltransferase PARP4 (Homo sapiens)
Sequence (Q9UKK3 whole entry): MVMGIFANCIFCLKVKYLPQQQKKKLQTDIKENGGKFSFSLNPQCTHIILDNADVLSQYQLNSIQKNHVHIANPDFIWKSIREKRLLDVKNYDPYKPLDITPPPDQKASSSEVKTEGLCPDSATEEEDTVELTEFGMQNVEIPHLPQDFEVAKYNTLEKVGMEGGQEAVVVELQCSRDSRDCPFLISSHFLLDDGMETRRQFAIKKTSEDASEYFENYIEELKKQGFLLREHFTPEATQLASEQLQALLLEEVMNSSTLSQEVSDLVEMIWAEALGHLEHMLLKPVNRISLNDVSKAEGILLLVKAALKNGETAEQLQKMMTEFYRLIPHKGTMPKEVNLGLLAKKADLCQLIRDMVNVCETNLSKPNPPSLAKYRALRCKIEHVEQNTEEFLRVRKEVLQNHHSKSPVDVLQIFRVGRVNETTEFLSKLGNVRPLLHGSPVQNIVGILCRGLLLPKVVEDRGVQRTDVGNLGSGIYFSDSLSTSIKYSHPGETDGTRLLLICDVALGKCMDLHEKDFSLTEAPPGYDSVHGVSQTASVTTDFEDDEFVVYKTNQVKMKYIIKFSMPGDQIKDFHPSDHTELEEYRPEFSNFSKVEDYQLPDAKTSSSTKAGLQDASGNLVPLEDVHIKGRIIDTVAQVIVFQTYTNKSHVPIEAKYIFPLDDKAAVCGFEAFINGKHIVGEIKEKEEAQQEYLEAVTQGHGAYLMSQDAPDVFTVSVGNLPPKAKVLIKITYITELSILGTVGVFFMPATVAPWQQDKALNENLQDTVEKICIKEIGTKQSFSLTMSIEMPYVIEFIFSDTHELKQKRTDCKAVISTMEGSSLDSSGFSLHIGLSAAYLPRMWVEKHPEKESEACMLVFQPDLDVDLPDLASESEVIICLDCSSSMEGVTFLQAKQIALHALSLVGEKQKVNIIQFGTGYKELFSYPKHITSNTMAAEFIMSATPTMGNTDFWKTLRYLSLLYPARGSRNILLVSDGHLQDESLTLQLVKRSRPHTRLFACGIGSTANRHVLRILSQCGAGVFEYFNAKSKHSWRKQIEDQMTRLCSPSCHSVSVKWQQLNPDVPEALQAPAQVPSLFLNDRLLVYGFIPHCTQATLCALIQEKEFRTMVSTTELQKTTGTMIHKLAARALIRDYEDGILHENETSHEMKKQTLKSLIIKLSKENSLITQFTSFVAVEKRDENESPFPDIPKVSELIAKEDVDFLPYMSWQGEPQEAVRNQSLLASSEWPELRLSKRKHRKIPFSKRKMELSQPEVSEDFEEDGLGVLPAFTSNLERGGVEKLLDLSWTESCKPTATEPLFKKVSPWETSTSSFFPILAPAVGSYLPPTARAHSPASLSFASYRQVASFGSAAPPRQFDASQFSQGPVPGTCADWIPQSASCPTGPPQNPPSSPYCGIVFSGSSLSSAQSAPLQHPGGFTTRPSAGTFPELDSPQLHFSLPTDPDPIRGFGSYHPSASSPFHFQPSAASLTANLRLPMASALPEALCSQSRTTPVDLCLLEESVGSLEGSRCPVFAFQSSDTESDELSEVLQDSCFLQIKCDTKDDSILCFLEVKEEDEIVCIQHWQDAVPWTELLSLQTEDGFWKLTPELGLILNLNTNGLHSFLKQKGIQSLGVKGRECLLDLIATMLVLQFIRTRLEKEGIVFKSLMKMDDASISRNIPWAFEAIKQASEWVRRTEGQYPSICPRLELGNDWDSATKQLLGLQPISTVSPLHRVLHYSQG
Observable: IC50 (nM)
Number only, in nM; omit the unit.

Answer briefly: IC50 recorded on Protein mono-ADP-ribosyltransferase PARP4 (Homo sapiens) for O=C(c1cc(Cc2n[nH]c(=O)c3ccccc23)ccc1F)N1CCn2c(nnc2-c2ccc(Br)o2)C1
1

###

# maps each entry to its IC50
Assay info: Antiproliferative activity against human Olaparib-resistant CAPAN-1 cells assessed as cell proliferation inhibition incubated for 7 days by SRB assay
Assay type: functional, cell-based
Number only, in nM; omit the unit.

Check out these entries, answers already filled in.
* O=C(c1cc(Cc2n[nH]c(=O)c3ccccc23)ccc1F)N1CCn2c(nnc2-c2cc(Br)c(Cl)o2)C1 | 20.3
* O=C(c1cc(Cc2n[nH]c(=O)c3ccccc23)ccc1F)N1CCn2c(nnc2-c2ccc(CN3CCSCC3)o2)C1 | 618
* Cc1ccc(-c2nnc3n2CCN(C(=O)c2cc(Cc4n[nH]c(=O)c5ccccc45)ccc2F)C3)o1 | 8.28

Consider the record given below.
State its IC50 for this compound: O=C(c1cc(Cc2n[nH]c(=O)c3ccccc23)ccc1F)N1CCn2c(nnc2-c2ccc(CN3CCOCC3)o2)C1
5140
